Tested on: Enterococcus faecalis
EXPERIMENT_DESCRIPTION: Minimum inhibitory required for antibacterial activity against Streptococcus faecalis
Assay type: functional
ASSAY_READOUT: MIC (µg/mL)

# CPD_SMILES, UNITS, MIC
measured = [
    ("C[C@@H](O)[C@H]1C(=O)N2C(C(=O)O)=C(CC[C@@H](N)C(=O)O)S[C@H]12", "µg/mL", 45.3),
]

(a) C[C@H](N)C1=C(C(=O)O)N2C(=O)[C@H]([C@@H](C)O)[C@H]2S1
(b) C[C@@H](O)[C@H]1C(=O)N2C(C(=O)O)=C(CSC[C@@H](N)C(=O)O)S[C@H]12
Parameter check: reported MIC is higher for which label, a or b ? Return value: the label identifying the chosen record. a
(a: 64 µg/mL, b: 16 µg/mL)

* * *

Tested on: Salmonella
EXPERIMENT_DESCRIPTION: Minimum inhibitory concentration required for antibacterial activity against Salmonella
Type: functional
ASSAY_READOUT: MIC (µg/mL)

# MOLECULE, TARGET_SYSTEM, MIC, µg/mL
data = [
    ("CSCC[C@@H](N)C1=C(C(=O)O)N2C(=O)[C@H]([C@@H](C)O)[C@H]2S1", "Salmonella", 0.397),
    ("C[C@H](N)C1=C(C(=O)O)N2C(=O)[C@H]([C@@H](C)O)[C@H]2S1", "Salmonella", 10.1),
    ("C[C@@H](O)[C@H]1C(=O)N2C(C(=O)O)=C(CN)S[C@H]12", "Salmonella", 3.18),
    ("C[C@@H](O)[C@H]1C(=O)N2C(C(=O)O)=C(CSC[C@H](N)C(=O)O)S[C@H]12", "Salmonella", 3.18),
    ("CSC[C@@H](N)C1=C(C(=O)O)N2C(=O)[C@H]([C@@H](C)O)[C@H]2S1", "Salmonella", 0.794),
]

(A) C[C@@H](O)[C@H]1C(=O)N2C(C(=O)O)=C(SCCOC(N)=O)S[C@H]12 [Sch-34343]
(B) C[C@@H](O)[C@H]1C(=O)N2C(C(=O)O)=C(COC(N)=O)S[C@H]12 [RITIPENEM]
Could you tell me which of A and B has the lower MIC reading? Return value: the label identifying the chosen record. A
(A: 0.25 µg/mL, B: 0.5 µg/mL)

(A) C[C@@H](O)[C@H]1C(=O)N2C(C(=O)O)=C([C@H](N)CCC(=O)O)S[C@H]12
(B) C[C@@H](O)[C@H]1C(=O)N2C(C(=O)O)=C(SC[C@@H](N)C(=O)O)S[C@H]12
Parameter check: reported MIC is higher for which label, A or B ? Return value: the label identifying the chosen record. A

(A) CSC[C@H](N)C1=C(C(=O)O)N2C(=O)[C@H]([C@@H](C)O)[C@H]2S1
(B) C[C@@H](O)[C@H]1C(=O)N2C(C(=O)O)=C(CC[C@H](N)C(=O)O)S[C@H]12
Parameter check: reported MIC is higher for which label, A or B ? Return value: the label identifying the chosen record. B
(B: 11.3 µg/mL, A: 5.04 µg/mL)

* * *

EXPERIMENT_DESCRIPTION: Gram-negative geometric mean MIC of antibacterial activity
Assay type: functional
ASSAY_READOUT: MIC (µg/mL)

Take a look at these entries with their results.
# CPD_SMILES, NUMERIC_READOUT
rows = [
    ("CSCC[C@@H](N)C1=C(C(=O)O)N2C(=O)[C@H]([C@@H](C)O)[C@H]2S1", 0.13),
    ("C[C@@H](O)[C@H]1C(=O)N2C(C(=O)O)=C(CC[C@H](N)C(=O)O)S[C@H]12", 17.3),
    ("C[C@H](N)C1=C(C(=O)O)N2C(=O)[C@H]([C@@H](C)O)[C@H]2S1", 24.6),
    ("CSCC[C@H](N)C1=C(C(=O)O)N2C(=O)[C@H]([C@@H](C)O)[C@H]2S1", 17.6),
    ("C[C@@H](O)[C@H]1C(=O)N2C(C(=O)O)=C(COC(N)=O)S[C@H]12", 1.2),
]

(P) C[C@@H](O)[C@H]1C(=O)N2C(C(=O)O)=C(SC[C@@H](N)C(=O)O)S[C@H]12
(Q) C[C@@H](O)[C@H]1C(=O)N2C(C(=O)O)=C(CN)S[C@H]12
(R) C[C@@H](O)[C@H]1C(=O)N2C(C(=O)O)=C(CC[C@@H](N)C(=O)O)S[C@H]12
Arrange items by their MIC values in increasing order. When ranking, write the labels in the order the request describes. P, R, Q
(P: 0.49 µg/mL, R: 4 µg/mL, Q: 6.27 µg/mL)

(A) CSC[C@H](N)C1=C(C(=O)O)N2C(=O)[C@H]([C@@H](C)O)[C@H]2S1
(B) C[C@@H](O)[C@H]1C(=O)N2C(C(=O)O)=C(CSC[C@@H](N)C(=O)O)S[C@H]12
Could you tell me which of A and B has the lower MIC reading? Return value: the label identifying the chosen record. B

(a) C[C@@H](O)[C@H]1C(=O)N2C(C(=O)O)=C(SC[C@H](N)C(=O)O)S[C@H]12
(b) C[C@@H](O)[C@H]1C(=O)N2C(C(=O)O)=C(CSC[C@H](N)C(=O)O)S[C@H]12
Parameter check: reported MIC is higher for which label, a or b ? Return value: the label identifying the chosen record. a
